system: 276233-004-R-J1-PDC KRAS spheroids with HUVEC/MSC, viability; assay: Anticancer human tumor 276233-004-R-J1-PDC patient-derived colon adenocarcinoma cell line growth inhibition [KRAS2]; settings: second compound 0.1 µM; first compound 0.1 µM; active compounds read low;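 also: cells exposed to agents for seven days before viability read; 100% = DMSO vehicle control wells and lower values mean fewer viable cells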
Property Name: viability, T/C (%)
Note: unit % is implicit; provide only the numeric part.

Please review the entries below; each comes with its answer.
Q. Item under review: Cn1ncnc1[C@H]1c2n[nH]c(=O)c3cc(F)cc(c23)N[C@@H]1c1ccc(F)cc1 + CC1OCC2(CCN(c3cnc(Sc4ccnc(N)c4Cl)c(N)n3)CC2)C1N . Reported viability, T/C?
A. 85.1

Q. Item under review: Cn1ncnc1[C@H]1c2n[nH]c(=O)c3cc(F)cc(c23)N[C@@H]1c1ccc(F)cc1 + C=CC(=O)N1CCN(c2nc(OCC3CCCN3C)nc3c2CCN(c2cccc4cccc(C)c24)C3)CC1CC#N . Reported viability, T/C?
A. 86.3

Q. Item under review: CC(C)NCC(C(=O)N1CCN(c2ncnc3c2C(C)CC3O)CC1)c1ccc(Cl)cc1 (stereo unspecified) + COc1cc2nc(C)nc(NC(C)c3cc(N)cc(C(F)(F)F)c3)c2cc1OC1CCOC1 . Reported viability, T/C?
A. 79.9

Q. Item under review: Cn1nccc1Nc1nccc(-c2cc3c(s2)C(C)(C)N(CCN2CCOCC2)C3=O)n1 + C=CC(=O)N1CCN(c2nc(=O)n(-c3c(C)ccnc3C(C)C)c3nc(-c4c(O)cccc4F)c(F)cc23)C(C)C1 . Reported viability, T/C?
A. 100

Q. Item under review: Cn1nccc1Nc1nccc(-c2cc3c(s2)C(C)(C)N(CCN2CCOCC2)C3=O)n1 + C=CC(=O)N1CCN(c2nc(OCC3CCCN3C)nc3c2CCN(c2cccc4cccc(C)c24)C3)CC1CC#N . Reported viability, T/C?
A. 99.3

Q. Item under review: CC1(C)CCC(CN2CCN(c3ccc(C(=O)NS(=O)(=O)c4ccc(NCC5CCOCC5)c([N+](=O)[O-])c4)c(Oc4cnc5[nH]ccc5c4)c3)CC2)=C(c2ccc(Cl)cc2)C1 + CC1OCC2(CCN(c3cnc(Sc4ccnc(N)c4Cl)c(N)n3)CC2)C1N . Reported viability, T/C?
A. 91.9

Q. Item under review: CCNC(=O)CC1N=C(c2ccc(Cl)cc2)c2cc(OC)ccc2-n2c(C)nnc21 (stereo unspecified) + CC1OCC2(CCN(c3cnc(Sc4ccnc(N)c4Cl)c(N)n3)CC2)C1N . Reported viability, T/C?
A. 85.6

Q. Item under review: CCN1CCN(Cc2ccc(Nc3ncc(F)c(-c4cc(F)c5nc(C)n(C(C)C)c5c4)n3)nc2)CC1 + CC1OCC2(CCN(c3cnc(Sc4ccnc(N)c4Cl)c(N)n3)CC2)C1N . Reported viability, T/C?
A. 76.5

---
Q. Item under review: Cn1nccc1Nc1nccc(-c2cc3c(s2)C(C)(C)N(CCN2CCOCC2)C3=O)n1 + CC1OCC2(CCN(c3cnc(Sc4ccnc(N)c4Cl)c(N)n3)CC2)C1N . Reported viability, T/C?
A. 82.3

Q. Item under review: COc1cc(Nc2ncc3c(n2)-c2ccc(Cl)cc2C(c2c(F)cccc2OC)=NC3)ccc1C(=O)O + CC1OCC2(CCN(c3cnc(Sc4ccnc(N)c4Cl)c(N)n3)CC2)C1N . Reported viability, T/C?
A. 85.6

Q. Item under review: CN(C)C/C=C/C(=O)Nc1cc2c(Nc3ccc(F)c(Cl)c3)ncnc2cc1O[C@H]1CCOC1 + C=CC(=O)N1CCN(c2nc(=O)n(-c3c(C)ccnc3C(C)C)c3nc(-c4c(O)cccc4F)c(F)cc23)C(C)C1 . Reported viability, T/C?
A. 85.3
